Entries and their measured relative β-galactosidase activity, inducer Sm follow.
System: lacZ under control of the tetA promoter (PtetA) in E. coli KM3
Format: cell-based
Conditions: Table 6, reverse repressor hits; sulfometuron, same plate assay format (20 ppm)
Reply: number alone, nothing else.

Past entries and their recorded results:
L1-18: library L1 hit with reverse repressor activity (SEQ ID NO: 1206-1213) (protein, rSuR L1-18) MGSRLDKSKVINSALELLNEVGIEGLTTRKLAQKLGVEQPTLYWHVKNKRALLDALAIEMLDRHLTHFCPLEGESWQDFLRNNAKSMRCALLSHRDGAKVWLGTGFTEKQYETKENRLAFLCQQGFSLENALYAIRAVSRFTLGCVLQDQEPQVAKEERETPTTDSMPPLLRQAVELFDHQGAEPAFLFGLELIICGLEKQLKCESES : 0.94
L1-33: library L1 hit with reverse repressor activity (SEQ ID NO: 1206-1213) (protein, rSuR L1-33) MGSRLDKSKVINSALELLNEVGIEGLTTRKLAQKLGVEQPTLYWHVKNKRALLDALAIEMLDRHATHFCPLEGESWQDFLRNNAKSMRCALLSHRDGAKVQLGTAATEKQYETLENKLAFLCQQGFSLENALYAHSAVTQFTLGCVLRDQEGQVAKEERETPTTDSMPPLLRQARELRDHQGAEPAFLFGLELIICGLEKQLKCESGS : 5.02

**Query** Need relative β-galactosidase activity, inducer Sm of L1-36: library L1 hit with reverse repressor activity (SEQ ID NO: 1206-1213) (protein, rSuR L1-36) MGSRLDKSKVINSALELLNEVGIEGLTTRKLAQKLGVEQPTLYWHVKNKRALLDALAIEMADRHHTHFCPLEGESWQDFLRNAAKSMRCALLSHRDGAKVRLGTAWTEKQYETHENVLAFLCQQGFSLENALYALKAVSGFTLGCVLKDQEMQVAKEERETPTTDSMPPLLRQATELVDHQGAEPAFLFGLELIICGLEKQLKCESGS , thanks.
**Result** 0.50
